Assay: In vitro photo-release and hydrolytic release of dicamba in an aqueous medium (Example 36)
Format: physicochemical
Conditions: 0.01 mM (0.005 mM for diesters), quartz tube, Day 14
Quick rule for you: Conversion to Dicamba, Light, Day 14 under 50% gets fulfilled, anything else gets not fulfilled.

Enquiry: I'd appreciate it if you could check whether COc1c(Cl)ccc(Cl)c1C(=O)Oc1ccc(OC(=O)c2c(Cl)ccc(Cl)c2OC)nn1 [Ester 17, Maleic Hydrazide Diester of Dicamba] has Conversion to Dicamba, Light, Day 14 smaller than 50%.
Return: not fulfilled

Enquiry: One more compound: COc1c(Cl)ccc(Cl)c1C(=O)Oc1ccc(=O)n(CCC#N)n1 [Ester 34a]
Return: fulfilled

Enquiry: One more compound: COc1c(Cl)ccc(Cl)c1C(=O)Oc1ccc(=O)n(CCC=O)n1 [Ester 33a]
Return: fulfilled

Enquiry: One more compound: CCOC(=O)CCn1nc(OC(=O)c2c(Cl)ccc(Cl)c2OC)ccc1=O [Ester 35a]
Return: not fulfilled

Enquiry: One more compound: COc1c(Cl)ccc(Cl)c1C(=O)Oc1ccccn1 [Ester 14, 2-Hydroxypyridine Ester of Dicamba]
Return: not fulfilled

Enquiry: One more compound: COc1ccc(COC(=O)c2c(Cl)ccc(Cl)c2OC)cc1 [Ester 29a, 4-methoxybenzyl ester of dicamba]
Return: not fulfilled

----------
Assay: In vitro photo-release and hydrolytic release of dicamba in an aqueous medium (Example 36)
Format: physicochemical
Conditions: 0.01 mM (0.005 mM for diesters), quartz tube, Day 1
Property Measured: Conversion to Dicamba, Light, Day 1 (%)
Write it as a number; the unit % goes unstated.

Enquiry: Report Conversion to Dicamba, Light, Day 1 for COc1c(Cl)ccc(Cl)c1C(=O)Oc1ccccn1 [Ester 14, 2-Hydroxypyridine Ester of Dicamba] please.
Return: 61

Enquiry: One more compound: COc1c(Cl)ccc(Cl)c1C(=O)Oc1ccc(=O)n(CCC=O)n1 [Ester 33a]
Return: 18

Enquiry: One more compound: COc1c(Cl)ccc(Cl)c1C(=O)Oc1ccc(OC(=O)c2c(Cl)ccc(Cl)c2OC)nn1 [Ester 17, Maleic Hydrazide Diester of Dicamba]
Return: 18

Enquiry: One more compound: COc1c(Cl)ccc(Cl)c1C(=O)Oc1nc(C(C)(C)C)cc(C(C)(C)C)c1C#N [Ester 36a]
Return: 57

Enquiry: One more compound: CCOC(=O)CCn1nc(OC(=O)c2c(Cl)ccc(Cl)c2OC)ccc1=O [Ester 35a]
Return: 57

Enquiry: One more compound: COc1c(Cl)ccc(Cl)c1C(=O)Oc1ccc(=O)n(CCC#N)n1 [Ester 34a]
Return: 10

Enquiry: One more compound: COc1ccc(COC(=O)c2c(Cl)ccc(Cl)c2OC)cc1 [Ester 29a, 4-methoxybenzyl ester of dicamba]
Return: 75

Enquiry: One more compound: C=C(C(=O)OCC)C(OC(=O)c1c(Cl)ccc(Cl)c1OC)c1ccccc1[N+](=O)[O-] (centres unmarked) [Ester 31a]
Return: 45

----------
Test: In vitro photo-release and hydrolytic release of dicamba in an aqueous medium (Example 36)
Type: physicochemical
Conditions: 0.01 mM (0.005 mM for diesters), quartz tube, Day 2
Procedure: This Example describes the determination of photo-lability and hydrolytic lability of dicamba esters in an aqueous medium. 1 mM solutions of the esters were prepared in acetonitrile (or […] solutions of dicamba diesters). The solutions were then diluted with deionized water to a concentration of 0.01 mM (or 0.005 mM for diesters). […] Hydrolytic activity was assessed by measuring the increase in dicamba concentration after day zero in the amber (dark) bottles. […]
Property Measured: Conversion to Dicamba, Light, Day 2
Please state the number and follow it with the unit.

Enquiry: Report Conversion to Dicamba, Light, Day 2 for COc1c(Cl)ccc(Cl)c1C(=O)Oc1ccc(OC(=O)c2c(Cl)ccc(Cl)c2OC)nn1 [Ester 17, Maleic Hydrazide Diester of Dicamba] please.
Return: 26%

Enquiry: One more compound: COc1ccc(COC(=O)c2c(Cl)ccc(Cl)c2OC)cc1 [Ester 29a, 4-methoxybenzyl ester of dicamba]
Return: 74%

Enquiry: One more compound: CCOC(=O)CCn1nc(OC(=O)c2c(Cl)ccc(Cl)c2OC)ccc1=O [Ester 35a]
Return: 58%

Enquiry: One more compound: COc1c(Cl)ccc(Cl)c1C(=O)Oc1nc(C(C)(C)C)cc(C(C)(C)C)c1C#N [Ester 36a]
Return: 60%

Enquiry: One more compound: COc1c(Cl)ccc(Cl)c1C(=O)Oc1ccc(=O)n(CCC#N)n1 [Ester 34a]
Return: 14%

Enquiry: One more compound: C=C(C(=O)OCC)C(OC(=O)c1c(Cl)ccc(Cl)c1OC)c1ccccc1[N+](=O)[O-] (centres unmarked) [Ester 31a]
Return: 48%

Enquiry: One more compound: COc1c(Cl)ccc(Cl)c1C(=O)Oc1ccc(=O)n(CCC=O)n1 [Ester 33a]
Return: 20%

Enquiry: One more compound: COc1c(Cl)ccc(Cl)c1C(=O)Oc1ccccn1 [Ester 14, 2-Hydroxypyridine Ester of Dicamba]
Return: 63%

----------
Test: In vitro photo-release and hydrolytic release of dicamba in an aqueous medium (Example 35)
Format: physicochemical
Conditions: 0.01 mM ester, quartz tube, 14-hour day, 35° C., Day 4
Property Measured: Conversion to Dicamba, Light, Day 4 (%)
Write it as a number; the unit % goes unstated.

Enquiry: Report Conversion to Dicamba, Light, Day 4 for COc1c(Cl)ccc(Cl)c1C(=O)Oc1cnc2ccccc2n1 [Ester 13a, 2-quinoxalinol ester of dicamba] please.
Return: 13

Enquiry: One more molecule: `COc1c(Cl)ccc(Cl)c1C(=O)OCCc1ccccc1[N+](=O)[O-]`
Return: 77

Enquiry: One more molecule: `COc1c(Cl)ccc(Cl)c1C(=O)OCc1ccccc1[N+](=O)[O-]`
Return: 21

Enquiry: One more molecule: COc1c(Cl)ccc(Cl)c1C(=O)Oc1ccc(=O)n(CCC(C)=O)n1 [Ester 32a]
Return: 22

----------
Experiment: In vitro dicamba photo-release from photo-labile dicamba esters, tetrahydrofuran solvent (Example 26)
Assay type: physicochemical
Conditions: THF, 0.1 mM ester, initial solution kept away from the light source, analyzed at conclusion of study
Description: This Example describes in vitro testing of dicamba photo-release by homogeneous solutions of photo-labile dicamba esters. The esters were dissolved in tetrahydrofuran (THF). Ester concentration was 0.1 mM. […] The sealed tubes were placed in a Growth Chamber where they were exposed to simulated sunlight for 14 hours per day at 35° C. Dicamba concentrations in the solution were measured during the course of the photolysis. […]
What Dark Control % dicamba was measured for each of the following?
Write it as a number; the unit % goes unstated.

Enquiry: Report Dark Control % dicamba for COc1ccc(C(=O)COC(=O)c2c(Cl)ccc(Cl)c2OC)cc1 [Ester 9] please.
Return: 1

Enquiry: One more compound: COc1c(Cl)ccc(Cl)c1C(=O)Oc1cnc2ccccc2n1 [Ester 13a, 2-quinoxalinol ester of dicamba]
Return: 11

Enquiry: One more compound: COc1c(Cl)ccc(Cl)c1C(=O)OCc1ccccc1[N+](=O)[O-] [Ester 1a, 2-Nitrobenzyl Ester of Dicamba]
Return: 1

Enquiry: One more compound: COc1c(Cl)ccc(Cl)c1C(=O)OCCc1ccccc1[N+](=O)[O-] [Ester 2, 2-Nitrophenethyl Ester of Dicamba]
Return: 0

Enquiry: One more compound: CCCCOc1ccc(C(=O)COC(=O)c2c(Cl)ccc(Cl)c2OC)cc1 [Ester 10]
Return: 8

----------
Experiment: In vitro photo-release and hydrolytic release of dicamba in an aqueous medium (Example 35)
Type: physicochemical
Details: 0.01 mM ester, amber (dark) bottle, 35° C., Day 3
Property Measured: Conversion to Dicamba, Dark, Day 3 (%)
Write it as a number; the unit % goes unstated.

Enquiry: Report Conversion to Dicamba, Dark, Day 3 for COc1c(Cl)ccc(Cl)c1C(=O)Oc1ccc(=O)n(CCC(C)=O)n1 [Ester 32a] please.
Return: 17

Enquiry: One more compound: COc1c(Cl)ccc(Cl)c1C(=O)Oc1cnc2ccccc2n1 [Ester 13a, 2-quinoxalinol ester of dicamba]
Return: 8

Enquiry: One more compound: COc1c(Cl)ccc(Cl)c1C(=O)OCc1ccccc1[N+](=O)[O-] [Ester 1a, 2-Nitrobenzyl Ester of Dicamba]
Return: 8

Enquiry: One more compound: COc1ccc(OC(=O)c2c(Cl)ccc(Cl)c2OC)cc1 [Ester 30a, 4-methoxyphenyl ester of dicamba]
Return: 5

Enquiry: One more compound: COc1c(Cl)ccc(Cl)c1C(=O)OCCc1ccccc1[N+](=O)[O-] [Ester 2, 2-Nitrophenethyl Ester of Dicamba]
Return: 3

----------
Assay: In vitro photo-release and hydrolytic release of dicamba in an aqueous medium (Example 35)
Type: physicochemical
Settings: 0.01 mM ester, amber (dark) bottle, 35° C., Day 1
Property Measured: Conversion to Dicamba, Dark, Day 1

Enquiry: Report Conversion to Dicamba, Dark, Day 1 for COc1c(Cl)ccc(Cl)c1C(=O)Oc1cnc2ccccc2n1 [Ester 13a, 2-quinoxalinol ester of dicamba] please.
Return: 7%

Enquiry: One more molecule: `COc1c(Cl)ccc(Cl)c1C(=O)OCc1ccccc1[N+](=O)[O-]`
Return: 8%

Enquiry: One more molecule: COc1c(Cl)ccc(Cl)c1C(=O)Oc1ccc(=O)n(CCC(C)=O)n1 [Ester 32a]
Return: 12%

Enquiry: One more molecule: `COc1c(Cl)ccc(Cl)c1C(=O)OCCc1ccccc1[N+](=O)[O-]`
Return: 3%

Origin of the recorded values: patent US20170029355A1
